Where these numbers come from: PubChem BioAssay

- assay.notes: LAP4-GFP expression modulators in yeast, confirmation, cell-based, cherry picks, flow cytometry, mother/daughter gates (AID 2271);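 also: ratio of sample to DMSO plate mean so 100% equals DMSO level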
- condition.description: S. cerevisiae LAP4-GFP strain, 3 h, measured here: daughter cell gate response, at 10 µM, stronger effect = higher value, 100 means same as DMSO control
Below, each of the compounds is paired with its reported GFP response relative to DMSO value.
Record the value in %, omitting the unit from your answer.

Answered examples (5):
* O=C(Nc1ccc(F)cc1)c1cc2cc(Cl)ccc2[nH]1 | 97.6
* CCOC(=O)Cc1csc(NC(=O)c2sc3nc4ccc(C)cc4cc3c2N)n1 | 91
* CC(C)(C)c1cc(C(c2cccnc2)N2CCN(CCO)CC2)cc(C(C)(C)C)c1O (stereo not drawn) | 168
* COc1ccccc1-c1nnc(NC(=O)c2ccc(S(=O)(=O)N(C)C)cc2)o1 | 112
* COC(=O)c1ccc(/C=C/C(=O)c2cccc(OC)c2)cc1 | 112

Q: Returns the measured GFP response relative to DMSO for the input compound. Input: Cc1nonc1C(=O)N/N=C/c1ccc([N+](=O)[O-])o1
Result: 109

Q: Returns the measured GFP response relative to DMSO for the input compound. Input: CCNc1nc(-c2ccc(Cl)cc2)cs1
Result: 97.2

Q: Returns the measured GFP response relative to DMSO for the input compound. Input: CC(=O)N(\C=C/C=C/C=C1\Sc2ccccc2C1=O)c1ccccc1
Result: 145

Q: Returns the measured GFP response relative to DMSO for the input compound. Input: COC(=O)c1ccc(N2C(=O)CC(Sc3n[nH]c(C)n3)C2=O)cc1 (stereo not drawn)
Result: 130

Q: Returns the measured GFP response relative to DMSO for the input compound. Input: O=C(c1ccccc1F)N1CCN(c2ccccc2F)CC1
Result: 100
